# Tested on: cancer cell lines
# TEST_DESCRIPTION: Cancer cell proliferation activity (CellTiterGlo, 72 h)
# Assay type: cell-based
# DETAILS: Homo sapiens, HT-1080, 72 h, HT1080 cell line (connective tissue), 72 h; read-out: IC50
# Experimental: Dose response relationships on cell proliferation was assessed for representative Compounds of the Disclosure on cancer cell lines. […] Cells were cultured in the appropriate media. […] After incubation for 72 h at 37° C. at 5% or 10% CO2 dependent on the medium, cell plates were equilibrated to room temperature for one hour, CellTiterGlo reagent (Promega) was added and luminescence was measured approximately an hour later using a luminometer. […]
Flag rule - IC50 less than 3 µM flags 1; the remaining entries get -1.

The examples below pair each entry with its known result.
[[record]]
compound = "CC[C@]1(CO)O[C@@H](n2cnc3c(N)nc(F)nc32)C[C@@H]1O"
category = -1

[[record]]
compound = "CC[C@]1(CO)O[C@@H](n2cnc3c(N)nc(F)nc32)[C@H](O)[C@@H]1O"
category = 1

[[record]]
compound = "Cc1cn([C@H]2C[C@H](O)[C@@](C#N)(CO)O2)c(=O)[nH]c1=O"
category = -1

[[record]]
compound = "C=C[C@]1(CO)O[C@@H](Nc2[nH]c(=O)ncc2Br)C[C@@H]1O"
category = -1

[[record]]
compound = "CCC[C@]1(CO)O[C@@H](n2cnc3c(N)nc(F)nc32)C[C@@H]1O"
category = -1


Prompt line: Hi there! Is IC50 for C[C@]1(CO)O[C@@H](n2cc(F)c(=O)[nH]c2=O)C[C@@H]1O below 3 µM, do you know?
Response line: 1

Prompt line: I wonder whether Nc1ccn([C@@H]2O[C@H](CO)[C@@H](O)C2(F)F)c(=O)n1 [gemcitabine, reference compound] has IC50 below 3 µM. Can you tell?
Response line: 1

Prompt line: Threshold test, IC50 < 3 µM: Nc1nc(F)nc2c1ncn2[C@H]1C[C@H](O)[C@](CO)(CF)O1
Response line: -1

Prompt line: Please indicate whether the reported IC50 of O=c1[nH]c(=O)n([C@H]2C[C@H](O)[C@](CO)(CF)O2)cc1F is strictly below 3 µM.
Response line: -1

Prompt line: Consider COC[C@]1(CO)O[C@@H](n2cnc3c(N)nc(F)nc32)C[C@@H]1O . Does its IC50 lie strictly below 3 µM?
Response line: -1

###

# Tested on: cancer cell lines
# TEST_DESCRIPTION: Cancer cell proliferation activity (CellTiterGlo, 72 h)
# Format: cell-based
# DETAILS: Homo sapiens, DU-145, 72 h, DU145 (prostate), 72 h; read-out: IC50 cell proliferation
Measured IC50 accompanies every entry in the list below.
Write the value in nM as a bare number.

Prompt line: Field: IC50 (cancer cell lines). Entry: Nc1nc(F)nc2c1ncn2[C@@H]1O[C@H](CO)[C@@H](O)[C@H]1O [compound 184]
Response line: 20

Prompt line: Short answer please: IC50, cancer cell lines, entry CCC[C@]1(CO)O[C@@H](n2cnc3c(N)nc(F)nc32)[C@H](O)[C@@H]1O [compound 195]
Response line: 30

Prompt line: Test system cancer cell lines; read-out IC50; what value for Nc1nc(F)nc2c1ncn2[C@H]1C[C@H](O)[C@@H](CO)O1 [compound 171] ?
Response line: 340

Prompt line: API: value(readout=IC50, system=cancer cell lines) for record Nc1nc(=O)n([C@H]2C[C@H](O)[C@](CO)(CF)O2)cc1F [Cpd. No. 197]
Response line: 425

Prompt line: Short answer please: IC50, cancer cell lines, entry Nc1nc(=O)n([C@H]2C[C@H](O)[C@@H](CO)O2)cc1F [compound 169]
Response line: 10

Prompt line: Return IC50 measured with cancer cell lines given this compound: C[C@]1(CO)O[C@@H](n2cnc3c(N)nc(F)nc32)[C@H](O)[C@@H]1O [Cpd. No. 178]
Response line: 20

Prompt line: Lab note: need IC50 for C[C@]1(CO)O[C@@H](n2ccc(N)nc2=O)[C@@H](O)[C@@H]1O [Cpd. No. 193] on cancer cell lines, anyone have it?
Response line: 1400

Prompt line: Hi! What's the reported IC50 for Nc1ccn([C@H]2C[C@H](O)[C@](CO)(CF)O2)c(=O)n1 [Cpd. No. 198] on cancer cell lines?
Response line: 310

Prompt line: Please tell me: IC50 of C[C@]1(CO)O[C@@H](n2ccc(N)nc2=O)C(F)(F)[C@@H]1O [Cpd. No. 190] , system cancer cell lines?
Response line: 3180

Prompt line: # returns recorded IC50 (system: cancer cell lines) for Nc1nc(F)nc2c1ncn2[C@@H]1O[C@H](CO)[C@@H](O)[C@@H]1O [compound 170]
Response line: 5440

FYI, the data here is from patent US20250215039A1.
